# TARGET UNDER TEST: mouse Tas2r105 (Mus musculus)
# Construct: expressed in transfected cells; host or cells: HEK293T-Gα16gust44
# Sequence (Q9JKT4 whole entry): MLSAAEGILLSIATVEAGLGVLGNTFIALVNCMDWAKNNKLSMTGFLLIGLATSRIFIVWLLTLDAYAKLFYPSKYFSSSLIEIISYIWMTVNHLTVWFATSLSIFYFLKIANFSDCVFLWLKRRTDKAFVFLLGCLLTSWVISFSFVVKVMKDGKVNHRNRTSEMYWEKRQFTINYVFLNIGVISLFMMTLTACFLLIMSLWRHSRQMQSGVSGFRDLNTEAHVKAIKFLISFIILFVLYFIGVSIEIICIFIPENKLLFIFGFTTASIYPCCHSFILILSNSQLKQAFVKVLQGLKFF
# METHOD DESCRIPTION: Calcium imaging assay (FLIPR), HEK293T-Gα16gust44 cells transfected with mouse Tas2r105
# Format: cell-based
# RUN CONDITIONS: Time 126.781 s
METRIC NAME: RLU (RLU)
Give the quantity in RLU, number only.

Use these answered entries as a reference point.
{"columns": ["COMPOUND", "RLU, RLU"],
 "data": [
  ["C[C@H](CCC(=O)O)[C@H]1CC[C@H]2[C@@H]3[C@H](O)C[C@@H]4C[C@H](O)CC[C@]4(C)[C@H]3C[C@H](O)[C@]12C [Cholic Acid, cholic acid]", 520.313],
  ["C[C@H](CCC(=O)O)[C@H]1CC[C@H]2[C@@H]3CC[C@@H]4C[C@H](O)CC[C@]4(C)[C@H]3C[C@H](O)[C@]12C [Deoxycholic Acid, deoxycholic acid]", 161.679],
  ["C[C@H](CCC(=O)O)[C@H]1CC[C@H]2[C@@H]3CC[C@@H]4C[C@H](O)CC[C@]4(C)[C@H]3CC[C@]12C [Lithocholic Acid, lithocholic acid]", 278.83]
]}

Consider the record given below.
In plain terms, C[C@H](CCC(=O)NCC(=O)O)[C@H]1CC[C@H]2[C@@H]3[C@H](O)C[C@@H]4C[C@H](O)CC[C@]4(C)[C@H]3C[C@H](O)[C@]12C [Glycocholic Acid, glycocholic acid] has a documented RLU of 525.829

* * *

# TARGET UNDER TEST: human TAS2R4 (Homo sapiens, UniProt Q9NYW5)
# Construct: expressed in transfected cells; host or cells: HEK293T-Gα16gust44
# Sequence (Q9NYW5 1-299): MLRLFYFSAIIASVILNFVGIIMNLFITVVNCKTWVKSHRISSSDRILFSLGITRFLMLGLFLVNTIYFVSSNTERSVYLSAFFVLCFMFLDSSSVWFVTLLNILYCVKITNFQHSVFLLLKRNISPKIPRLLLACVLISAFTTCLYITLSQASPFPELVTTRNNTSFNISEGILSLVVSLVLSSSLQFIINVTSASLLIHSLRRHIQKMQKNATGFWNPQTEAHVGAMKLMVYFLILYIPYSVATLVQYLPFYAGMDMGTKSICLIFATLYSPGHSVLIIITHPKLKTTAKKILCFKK
# METHOD DESCRIPTION: Calcium imaging assay (FLIPR), HEK293T-Gα16gust44 cells transfected with human TAS2R4; further: test concentration or dose not given here
# Format: cell-based
# RUN CONDITIONS: Time (s) 197.547
METRIC NAME: RLU, fluorescence trace (RLU)
Write the answer as a number in RLU, unit excluded.

Solved cases (2 shown):
{"columns": ["GIVEN SMILES", "RLU, fluorescence trace [RLU]"],
 "data": [
  ["C[C@H](CCC(=O)O)[C@H]1CC[C@H]2[C@@H]3CC[C@@H]4C[C@H](O)CC[C@]4(C)[C@H]3C[C@H](O)[C@]12C", 331.461],
  ["C[C@H](CCC(=O)NCC(=O)O)[C@H]1CC[C@H]2[C@@H]3[C@H](O)C[C@@H]4C[C@H](O)CC[C@]4(C)[C@H]3C[C@H](O)[C@]12C", 221.087]
]}

Item: C[C@H](CCC(=O)O)[C@H]1CC[C@H]2[C@@H]3[C@@H](O)C[C@@H]4C[C@H](O)CC[C@]4(C)[C@H]3CC[C@]12C | System: human TAS2R4 (Homo sapiens, UniProt Q9NYW5) | RLU, fluorescence trace: 155.041
